target-entity: truncated CRBN (319-427) (Homo sapiens (Human), UniProt Q96SW2)
Sequence (Q96SW2 319-427): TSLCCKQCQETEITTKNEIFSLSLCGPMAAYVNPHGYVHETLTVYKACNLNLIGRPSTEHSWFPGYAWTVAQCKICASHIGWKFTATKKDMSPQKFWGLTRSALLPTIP
procedure-text: Fluorescence binding assay (fluorescence quenching), affinity to E3-CEREBLON (CRBN)-ubiquitin ligase
assay-conditions: ubiquitination moiety and linker, pH 6.5
measurement-name: IC50

Please review the entries below; each comes with its answer.
INSERT INTO measurements (smiles, measurement_name, result) VALUES
  ('[N-]=[N+]=NCCOCCOCCOCCNc1cc(-c2ccc3c(c2)CC(=O)N3)ccn1', 'IC50', '100 to 300 µM'),
  ('[N-]=[N+]=NCCOCCOCCOCCNc1cc(-c2ccc3c(c2)NC(=O)C3)ccn1', 'IC50', '100 to 300 µM'),
  ('[N-]=[N+]=NCCOCCOCCOCCNc1ccc(-c2ccc3c(c2)NC(=O)C3)cn1', 'IC50', '100 to 300 µM');

Read the next record carefully.
Exercise: Short answer please: IC50, truncated CRBN (319-427) (Homo sapiens (Human), UniProt Q96SW2), entry Nc1ccc(OCCOCCOCCOCCNc2ccc(-c3ccc4c(c3)CC(=O)N4)cn2)cc1
Key: 1 to 100 µM

----------
Reported IC50 values for the following compounds.
target-entity: truncated CRBN (319-427) (Homo sapiens (Human))
procedure-text: Fluorescence binding assay (fluorescence quenching), affinity to E3-CEREBLON (CRBN)-ubiquitin ligase
assay-conditions: ubiquitination moiety, pH 6.5

INSERT INTO measurements (compound, measurement_name, result) VALUES
  ('CC1C(=O)Nc2cc(-c3ccncc3)ccc21 (stereo not drawn)', 'IC50', '100 to 300 µM'),
  ('CC1(C)C(=O)Nc2cc(-c3ccncc3)ccc21', 'IC50', '> 300 µM'),
  ('O=C1Cc2ccc(-c3ccc(N4CCCCC4)nc3)cc2N1', 'IC50', '> 300 µM'),
  ('O=C1Cc2ccc(-c3ccc(N4CCNCC4)nc3)cc2N1', 'IC50', '> 300 µM'),
  ('O=C1Cc2ccc(-c3cccc(CN4CCNCC4)c3)cc2N1', 'IC50', '> 300 µM');

Exercise: Entry O=C1Cc2ccc(Oc3ccnc(Cl)n3)cc2N1 has what IC50?
Key: > 300 µM

Exercise: Name the recorded IC50 for CN1CCN(C(=O)c2ccc3c(c2)CC(=O)N3)CC1 .
Key: > 300 µM

Exercise: Fill in the blank: the reported IC50 of O=C1Cc2cc(NC(=O)c3cccnc3)ccc2N1 [Compound 072, N-(2-oxoindolin-5-yl)nicotinamide] is ____.
Key: 100 to 300 µM

Exercise: Please report the recorded IC50 for CN1CCC(NC(=O)c2ccc3c(c2)NC(=O)C3)CC1 .
Key: > 300 µM

Exercise: Please report the recorded IC50 for COc1cc(-c2ccc3c(c2)NC(=O)C3)ccn1 .
Key: 100 to 300 µM

Exercise: Which value of IC50 has been reported for O=C1Cc2ccc(-c3ccc(CN4CCNCC4)cc3)cc2N1 in the records?
Key: 1 to 100 µM

Exercise: # lookup: IC50 of Nc1cnccc1-c1ccc2c(c1)NC(=O)C2
Key: > 300 µM

Exercise: What IC50 value was documented for this compound, O=C1Cc2ccc(C(=O)Nc3ccncc3)cc2N1 ?
Key: 100 to 300 µM

----------
target-entity: truncated CRBN (319-427) (Homo sapiens (Human), UniProt Q96SW2)
procedure-text: Fluorescence binding assay (fluorescence quenching), affinity to E3-CEREBLON (CRBN)-ubiquitin ligase
assay-conditions: ubiquitination moiety, pH 6.5
measurement-name: IC50

INSERT INTO measurements (molecule, result) VALUES
  ('O=C1Cc2ccc(-c3ccc4[nH]ccc4c3)cc2N1', '> 300 µM');

Exercise: Would you kindly share the measured IC50 for Nc1cc(-c2ccc3c(c2)CC(=O)N3)ccn1 ?
Key: 100 to 300 µM

Exercise: // lookup IC50 for CC(C)(C)OC(=O)N1CCN(C(=O)c2ccc(-c3ccc4c(c3)CC(=O)N4)cc2)CC1
Key: > 300 µM

Exercise: Endpoint output: IC50 of CNC(=O)c1ccc(-c2ccc3c(c2)NC(=O)C3)cc1 [Compound 022, N-methyl-4-(2-oxoindolin-6-yl)benzamide] . Value?
Key: 1 to 100 µM

Exercise: Reported IC50, molecule Cc1cnccc1-c1ccc2c(c1)NC(=O)C2 : ____
Key: > 300 µM

Exercise: # input molecule: O=C1Cc2c(cccc2-c2ccncc2)N1 ; wanted: its IC50
Key: > 300 µM

Exercise: Look at this molecule and give its reported IC50. O=C1Cc2ncc(-c3ccncc3)cc2N1
Key: > 300 µM
